Collected MIC Staphylococcus aureus (GC 3051) values appear next to each entry.
test system: Staphylococcus sp.; test: In vitro antibacterial evaluation: minimum inhibitory concentration (MIC), broth dilution method; assay type: cell-based; details: Staphylococcus aureus (GC 3051); 18 hours at 35° C.
Put your answer as a value accompanied by its unit after it.

Consider the following illustrative entries.
Compound	MIC Staphylococcus aureus (GC 3051)
COc1ccc(COCC2OC(OC3C(CO)OC(Oc4ccc(CC5NC(=O)C(C(C)c6ccccc6)NC(=O)CNC(=O)C(CO)NC(=O)C(C(O)C6CNC(=N)N6C6OC(CO)C(O)C(O)C6O)NC(=O)C(C(O)C6CNC(=N)N6)NC5=O)cc4)C(O)C3O)C(O)C(O)C2O)cc1OCc1ccccc1 (stereo not shown)	1 µg/mL
CC(c1ccccc1)C1NC(=O)CNC(=O)C(CO)NC(=O)C(C(O)C2CNC(=N)N2C2OC(CO)C(O)C(O)C2O)NC(=O)C(C(O)C2CNC(=N)N2)NC(=O)C(Cc2ccc(OC3OC(CO)C(OC4OC(CO)C(OCC=Cc5ccc(N(C)C)cc5)C(O)C4O)C(O)C3O)cc2)NC1=O (stereo not shown) [Example 243a]	32 µg/mL
COc1ccc(COCC2OC(OC3C(CO)OC(Oc4ccc(CC5NC(=O)C(C(C)c6ccccc6)NC(=O)CNC(=O)C(CO)NC(=O)C(C(O)C6CNC(=N)N6C6OC(CO)C(O)C(O)C6O)NC(=O)C(C(O)C6CNC(=N)N6)NC5=O)cc4)C(O)C3O)C(O)C(O)C2O)cc1 (stereo not shown)	4 µg/mL

The record that follows has no MIC Staphylococcus aureus (GC 3051) shown yet.
Problem: So what's the measured MIC Staphylococcus aureus (GC 3051) for this one? Cc1ccc(COCC2OC(OC3C(CO)OC(Oc4ccc(CC5NC(=O)C(C(C)c6ccccc6)NC(=O)CNC(=O)C(CO)NC(=O)C(C(O)C6CNC(=N)N6C6OC(CO)C(O)C(O)C6O)NC(=O)C(C(O)C6CNC(=N)N6)NC5=O)cc4)C(O)C3O)C(O)C(O)C2O)cc1 (stereo not shown)
Result: 2 µg/mL

----------
test system: Staphylococcus sp.; test: In vitro antibacterial evaluation: minimum inhibitory concentration (MIC), broth dilution method; assay type: cell-based; settings: strain GC 4541; broth dilution, 18 hours at 35° C.
Measurement type: MIC Staphylococcus aureus (GC 4541)
State the value, then name its unit.

Compound	MIC Staphylococcus aureus (GC 4541)
COc1cc(OC)cc(C2OC3C(OC4C(CO)OC(Oc5ccc(CC6NC(=O)C(C(C)c7ccccc7)NC(=O)CNC(=O)C(CO)NC(=O)C(C(O)C7CNC(=N)N7C7OC(CO)C(O)C(O)C7O)NC(=O)C(C(O)C7CNC(=N)N7)NC6=O)cc5)C(O)C4O)OC(CO)C(O)C3O2)c1 (centres unmarked) [Example 150a]	16 µg/mL
CC(c1ccccc1)C1NC(=O)CNC(=O)C(CO)NC(=O)C(C(O)C2CNC(=N)N2C2OC(CO)C(O)C(O)C2O)NC(=O)C(C(O)C2CNC(=N)N2)NC(=O)C(Cc2ccc(OC3OC(CO)C(OC4OC5COC(Cc6ccc(F)cc6)OC5C(O)C4O)C(O)C3O)cc2)NC1=O (centres unmarked)	1 µg/mL

Problem: Observed MIC Staphylococcus aureus (GC 4541) on Staphylococcus sp. for Cc1ccc(CC2OCC3OC(OC4C(CO)OC(Oc5ccc(CC6NC(=O)C(C(C)c7ccccc7)NC(=O)CNC(=O)C(CO)NC(=O)C(C(O)C7CNC(=N)N7C7OC(CO)C(O)C(O)C7O)NC(=O)C(C(O)C7CNC(=N)N7)NC6=O)cc5)C(O)C4O)C(O)C(O)C3O2)cc1 (centres unmarked) , please.
Result: 1 µg/mL

Problem: API: value(readout= MIC Staphylococcus aureus (GC 4541), system= Staphylococcus sp., query= CC(C)CC1OCC2OC(OC3C(CO)OC(Oc4ccc(CC5NC(=O)C(C(C)c6ccccc6)NC(=O)CNC(=O)C(CO)NC(=O)C(C(O)C6CNC(=N)N6C6OC(CO)C(O)C(O)C6O)NC(=O)C(C(O)C6CNC(=N)N6)NC5=O)cc4)C(O)C3O)C(O)C(O)C2O1 (centres unmarked) )
Result: 2 µg/mL

Problem: Give recorded MIC Staphylococcus aureus (GC 4541) with Staphylococcus sp. for the following compound: CC(c1ccccc1)C1NC(=O)CNC(=O)C(CO)NC(=O)C(C(O)C2CNC(=N)N2C2OC(CO)C(O)C(O)C2O)NC(=O)C(C(O)C2CNC(=N)N2)NC(=O)C(Cc2ccc(OC3OC(CO)C(OC4OC5COC(C6CCCC6)OC5C(O)C4O)C(O)C3O)cc2)NC1=O (centres unmarked)
Result: 1 µg/mL
